system: SN12C renal; assay: NCI-60 one-dose screen, 48 h (100 = growth as untreated, 0 = no growth, -100 = all killed); settings: 10 µM unless noted
The panel holds about 83,000 compounds, 20% with a hit somewhere; the sample as a whole holds those more often. Activity calls are given as the source filed them. Rule for the calls: active = growth percent below 10; inactive = the rest.
quantity_kind: growth

Output measured growth for this item: `O=C(Nc1ccc(F)cc1)ON=C1CCCCC1`
100% [100 µM] (inactive)

Please report growth for the following compound: `Nc1ccc(SSc2ccc(N)cc2)cc1`
101% (inactive)

Look up and state reported growth for `N#CSCc1ccc(Cl)c(CSC#N)c1`
33.1% (inactive)

Tell me its growth given CN(Cc1cnc2nc(N)nc(N)c2n1)c1ccc(C(=O)NC(CCC(=O)O)C(=O)O)cc1 (configuration not stated) as the entry.
26.9% (inactive)

Hello, please tell me recorded growth for this one: `Oc1c(Br)c(Br)c(O)c(Br)c1Br`
113% (inactive)

Write down growth measured for item `CCOC(=O)c1c(C)[nH]c(CO)c1C`
95.2% (inactive)

Write down growth measured for item CN(C)c1ccc(C(=C2C=CC(=[N+](C)C)C=C2)c2ccc(N(C)C)cc2)cc1 (tested in a mixture with another compound)
-48.3% (active)

Return value of growth for input `NC1=CC(=O)c2ccccc2C1=O` , no commentary.
85.5% (inactive)

Entry COC(=O)[C@@]12OC[C@]34[C@H]([C@@H](O)[C@@H]1O)[C@@]1(C)[C@H](O)C(=O)C=C(C)[C@@H]1C[C@H]3OC(=O)C(OC(C)=O)[C@@H]24 (some centres not stated) needs its growth filled in; supply it.
-17.5% (active)

Dear colleague, please send me the reported growth for `CC(=O)ON=C1C=CC(=C(C#N)c2ccccc2)C=C1` when you can.
18% (inactive)

# return recorded growth for entry `CCCCCCCCCCCCCCCCN(CC)CC`
-83.5% (active)

Check the records and state growth for `NC(N)=N/N=C/c1ccc([N+](=O)[O-])o1`
86.6% (inactive)

Give the reported value of growth for this record: `CCC(CC)COC(=O)c1ccc(O)c(O)c1`
45.8% (inactive)

Return the recorded growth value; entry: `CCOC(=O)/C=C/c1ccc([N+](=O)[O-])o1`
85.5% (inactive)

Identify the reported growth for the following entry. `O=C1c2ccccc2C(=O)c2sc(Nc3ccc(Cl)cc3)nc21`
-80.3% (active)

Fill in growth for record `N#Cc1ccc([N+](=O)[O-])o1`
106% (inactive)

# return recorded growth for entry CCC(CCCN(CC)CCc1ccccc1)OC(=O)c1cc(OC)c(OC)c(OC)c1 (configuration not stated)
90.2% (inactive)
